# Tested on: AG215, Klebsiella pneumonia
# measurement_notes: MIC reference strain AG215
# Assay type: cell-based
# condition_set: Klebsiella pneumoniae, reference strain; read-out: MIC AG215 K. pneumonia
# MIC values compiled below
measure: MIC

compound="NCC[C@H](O)C(=O)N[C@@H]1C[C@H](N)[C@@H](O[C@H]2O[C@H](CN)[C@@H](O)[C@H](O)[C@H]2O)[C@H](O)[C@H]1O[C@H]1O[C@H](CO)[C@@H](O)[C@H](N)[C@H]1O [AMK, amikacin, reference compound]" measured_on="AG215, Klebsiella pneumonia" value_measured="1 µg/mL"
compound="CNC1C(OC2OC(CO)C(N)C(O)C2O)OC2CC(N)C(OC3C(N)CC(N)C(O)C3OC3OC(CO)C(OC4OC(CN)C(O)C(O)C4N)C3O)OC2C1O (centres unmarked)" measured_on="AG215, Klebsiella pneumonia" value_measured="1 µg/mL"
compound="CNC1C(OC2OC(CO)C(N)C(O)C2O)OC2CC(N)C(OC3C(N)CC(N)C(O)C3OC3OC(CNC=O)C(OCCN)C3O)OC2C1O (centres unmarked)" measured_on="AG215, Klebsiella pneumonia" value_measured="1 µg/mL"
compound="CNC1C(OC2OC(CO)C(N)C(O)C2O)OC2CC(N)C(OC3C(N)CC(N)C(O)C3O)OC2C1O (stereo not drawn) [DC161, 5-Epi-apramycin]" measured_on="AG215, Klebsiella pneumonia" value_measured="1 µg/mL"
compound="CNC1C(OC2OC(CO)C(N)C(O)C2O)OC2CC(N)C(OC3C(N)CC(N)C(O)C3OC3OC(CN)C(OCCN)C3O)OC2C1O (centres unmarked)" measured_on="AG215, Klebsiella pneumonia" value_measured="0.5 to 1 µg/mL"
compound="CNC1C(OC2OC(CO)C(N)C(O)C2O)OC2CC(N)C(OC3C(N)CC(N)C(O)C3OC3OC(CNC=O)C(O)C3O)OC2C1O (centres unmarked)" measured_on="AG215, Klebsiella pneumonia" value_measured="4 µg/mL"
compound="CNC1C(OC2OC(CO)C(N)C(O)C2O)OC2CC(N)C(OC3C(N)CC(N)C(O)C3OC3OC(CO)C(O)C3O)OC2C1O (centres unmarked)" measured_on="AG215, Klebsiella pneumonia" value_measured="2 µg/mL"
compound="CNC1C(OC2OC(CO)C(N)C(O)C2O)OC2CC(N)C(OC3C(N)CC(N)C(O)C3OC3OCC(O)C3O)OC2C1O (stereo not drawn) [DC146, 5-O-β-D—(Erythrofuranosyl) apramycin]" measured_on="AG215, Klebsiella pneumonia" value_measured="4 µg/mL"
compound="CNC1C(OC2OC(CO)C(N)C(O)C2O)OC2CC(N)C(OC3C(N)CC(N)C(OCCO)C3O)OC2C1O (centres unmarked) [DC167, 6-O-(2-Hydroxyethyl)-apramycin]" measured_on="AG215, Klebsiella pneumonia" value_measured="4 µg/mL"
compound="CNC1C(O)C2O[C@H](O[C@@H]3C(N)C[C@@H](N)C(O)[C@H]3O[C@@H]3O[C@H](CNCCN)[C@@H](O)[C@H]3O)C(N)C[C@@H]2O[C@@H]1O[C@H]1OC(CO)[C@@H](N)[C@H](O)C1O (some centres unmarked)" measured_on="AG215, Klebsiella pneumonia" value_measured="1 µg/mL"
compound="CNC1C(OC2OC(CO)C(N)C(O)C2O)OC2CC(N)C(OC3CC(O)C(N)CC3N)OC2C1O (centres unmarked)" measured_on="AG215, Klebsiella pneumonia" value_measured="2 µg/mL"
